TARGET OR TEST SYSTEM: Prostaglandin G/H synthase 2 (Homo sapiens, UniProt P35354)
Sequence (P35354 whole entry): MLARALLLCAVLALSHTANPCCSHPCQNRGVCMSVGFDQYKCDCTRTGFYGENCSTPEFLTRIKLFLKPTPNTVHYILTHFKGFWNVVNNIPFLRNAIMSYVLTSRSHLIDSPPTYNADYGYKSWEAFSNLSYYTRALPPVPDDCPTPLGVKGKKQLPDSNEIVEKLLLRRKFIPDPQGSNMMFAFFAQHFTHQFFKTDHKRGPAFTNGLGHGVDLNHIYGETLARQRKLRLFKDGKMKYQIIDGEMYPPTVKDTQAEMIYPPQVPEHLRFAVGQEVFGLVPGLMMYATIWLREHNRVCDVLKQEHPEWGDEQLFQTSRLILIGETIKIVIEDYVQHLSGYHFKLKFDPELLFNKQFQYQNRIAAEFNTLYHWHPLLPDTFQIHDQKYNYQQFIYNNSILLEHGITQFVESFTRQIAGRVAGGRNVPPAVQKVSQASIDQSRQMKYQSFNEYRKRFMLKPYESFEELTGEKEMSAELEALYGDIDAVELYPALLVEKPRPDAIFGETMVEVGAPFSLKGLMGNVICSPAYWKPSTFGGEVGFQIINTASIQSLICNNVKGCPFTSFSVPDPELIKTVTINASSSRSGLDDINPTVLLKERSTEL
PROCEDURE DETAILS: In vitro inhibitory concentration against Prostaglandin G/H synthase 2 enzyme activity
pIC50: −log10 of the molar value.

# MOLECULE, INEQUALITY OPERATOR, pIC50
records = [
    ("Cc1[nH]c2cc(S(C)(=O)=O)ccc2c1Oc1ccc(F)cc1", "=", 7.52),
    ("CC(=O)OCc1[nH]c2cc(S(C)(=O)=O)ccc2c1Sc1ccccc1Cl", "<", 4.40),
    ("COc1ccc(Sc2c(C)[nH]c3cc(S(C)(=O)=O)ccc23)cc1", "=", 6.33),
    ("CS(=O)(=O)Cc1[nH]c2cc(S(C)(=O)=O)ccc2c1Sc1ccccc1Cl", "<", 4.40),
    ("Cc1[nH]c2cc(S(C)(=O)=O)ccc2c1S(=O)(=O)c1ccc(F)cc1", "<", 4.40),
    ("CNC(=O)c1[nH]c2cc(S(C)(=O)=O)ccc2c1Sc1ccc(F)cc1F", "<", 4.40),
    ("COc1ccc(Cc2c(C)[nH]c3cc(S(C)(=O)=O)ccc23)cc1", "=", 6.57),
    ("CS(=O)(=O)c1ccc2c(Sc3ccc(F)cc3)c(C(N)=O)[nH]c2c1", "=", 5.92),
    ("Cc1[nH]c2cc(S(C)(=O)=O)ccc2c1Oc1ccc(Cl)cc1Cl", "=", 6.96),
    ("Cc1[nH]c2cc(S(C)(=O)=O)ccc2c1[S+]([O-])c1ccc(F)cc1 (stereo not drawn)", "<", 4.40),
    ("Cc1[nH]c2cc(S(C)(=O)=O)ccc2c1Sc1ccc(F)cc1", "=", 7.70),
    ("COC(=O)c1[nH]c2cc(S(C)(=O)=O)ccc2c1Sc1ccc(F)cc1F", "=", 6.42),
    ("Cc1[nH]c2cc(S(C)(=O)=O)ccc2c1Sc1ccccn1", "=", 5.75),
    ("CS(=O)(=O)c1ccc2c(Sc3ccc(F)cc3F)c(C(N)=O)[nH]c2c1", "=", 5.65),
    ("COc1ccc(Oc2c(C)[nH]c3cccc(S(C)(=O)=O)c23)cc1", "=", 6.70),
    ("COc1ccc(Sc2c(C#N)[nH]c3cc(S(C)(=O)=O)ccc23)c(Cl)c1", "=", 6.48),
    ("Cc1[nH]c2cc(S(C)(=O)=O)ccc2c1Oc1ccc(F)cc1F", "=", 6.96),
    ("Cc1[nH]c2cc(S(C)(=O)=O)ccc2c1Oc1ccc(Cl)cc1", "=", 6.52),
    ("COC(=O)c1[nH]c2cc(S(C)(=O)=O)ccc2c1Sc1ccc(F)cc1", "=", 6.10),
    ("CS(=O)(=O)c1ccc2c(Sc3ccc(F)cc3F)c(C#N)[nH]c2c1", "=", 6.03),
    ("Cc1[nH]c2cc(S(C)(=O)=O)ccc2c1Cc1ccc(Cl)cc1", "=", 6.59),
    ("Cc1[nH]c2cc(S(C)(=O)=O)ccc2c1C(=O)c1ccc(F)cc1", "=", 6.18),
    ("CS(=O)(=O)c1ccc2c(Sc3ccccc3Cl)c(C#N)[nH]c2c1", "=", 6.89),
]
